biological target: UniProtKB P08191; assay: Antagonist activity at Escherichia coli recombinant C-terminal 6His-tagged FimH-CRD with a C-terminal thrombin cleavage site expressed in Escherichia coli HM125 assessed as inhibition of streptavidin-horseradish peroxidase conjugated TM-PAA polymer binding after 3 hrs by spectrophotometry
Sequence (P08191 whole entry): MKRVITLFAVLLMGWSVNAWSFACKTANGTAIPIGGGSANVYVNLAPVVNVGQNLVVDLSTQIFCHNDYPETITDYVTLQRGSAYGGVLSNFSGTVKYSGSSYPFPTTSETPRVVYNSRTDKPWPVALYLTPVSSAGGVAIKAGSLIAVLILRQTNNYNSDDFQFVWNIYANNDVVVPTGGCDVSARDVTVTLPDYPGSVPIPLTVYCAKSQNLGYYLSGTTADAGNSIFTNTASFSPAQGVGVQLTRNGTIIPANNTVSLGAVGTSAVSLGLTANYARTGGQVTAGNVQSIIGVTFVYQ
Provide the reported IC50 of each item.
Answers are plain numbers, in nM.

Provide IC50 for all items below, preserving their order.
1. COc1cccc(Cn2cc(CCO[C@H]3O[C@H](CO)[C@@H](O)[C@H](O)[C@@H]3O)nn2)c1
2. OC[C@H]1O[C@H](Cn2cc(-c3ccccc3)nn2)[C@@H](O)[C@@H](O)[C@@H]1O

1: 229; 2: 560

Provide reported IC50 for each item, in the same order as listed.
1. OC[C@H]1O[C@H](OCc2cn(-c3cccc(F)c3)nn2)[C@@H](O)[C@@H](O)[C@@H]1O
2. OC[C@H]1O[C@H](Cn2cc(COc3ccccc3)nn2)[C@@H](O)[C@@H](O)[C@@H]1O
3. OC[C@H]1O[C@H](Cn2cc(-c3cccc(Cl)c3)nn2)[C@@H](O)[C@@H](O)[C@@H]1O

[348, 327, 639]
